# ASSAY_SYSTEM: CaV2.2 (Homo sapiens, UniProt Q00975)
# Sequence (Q00975 whole entry): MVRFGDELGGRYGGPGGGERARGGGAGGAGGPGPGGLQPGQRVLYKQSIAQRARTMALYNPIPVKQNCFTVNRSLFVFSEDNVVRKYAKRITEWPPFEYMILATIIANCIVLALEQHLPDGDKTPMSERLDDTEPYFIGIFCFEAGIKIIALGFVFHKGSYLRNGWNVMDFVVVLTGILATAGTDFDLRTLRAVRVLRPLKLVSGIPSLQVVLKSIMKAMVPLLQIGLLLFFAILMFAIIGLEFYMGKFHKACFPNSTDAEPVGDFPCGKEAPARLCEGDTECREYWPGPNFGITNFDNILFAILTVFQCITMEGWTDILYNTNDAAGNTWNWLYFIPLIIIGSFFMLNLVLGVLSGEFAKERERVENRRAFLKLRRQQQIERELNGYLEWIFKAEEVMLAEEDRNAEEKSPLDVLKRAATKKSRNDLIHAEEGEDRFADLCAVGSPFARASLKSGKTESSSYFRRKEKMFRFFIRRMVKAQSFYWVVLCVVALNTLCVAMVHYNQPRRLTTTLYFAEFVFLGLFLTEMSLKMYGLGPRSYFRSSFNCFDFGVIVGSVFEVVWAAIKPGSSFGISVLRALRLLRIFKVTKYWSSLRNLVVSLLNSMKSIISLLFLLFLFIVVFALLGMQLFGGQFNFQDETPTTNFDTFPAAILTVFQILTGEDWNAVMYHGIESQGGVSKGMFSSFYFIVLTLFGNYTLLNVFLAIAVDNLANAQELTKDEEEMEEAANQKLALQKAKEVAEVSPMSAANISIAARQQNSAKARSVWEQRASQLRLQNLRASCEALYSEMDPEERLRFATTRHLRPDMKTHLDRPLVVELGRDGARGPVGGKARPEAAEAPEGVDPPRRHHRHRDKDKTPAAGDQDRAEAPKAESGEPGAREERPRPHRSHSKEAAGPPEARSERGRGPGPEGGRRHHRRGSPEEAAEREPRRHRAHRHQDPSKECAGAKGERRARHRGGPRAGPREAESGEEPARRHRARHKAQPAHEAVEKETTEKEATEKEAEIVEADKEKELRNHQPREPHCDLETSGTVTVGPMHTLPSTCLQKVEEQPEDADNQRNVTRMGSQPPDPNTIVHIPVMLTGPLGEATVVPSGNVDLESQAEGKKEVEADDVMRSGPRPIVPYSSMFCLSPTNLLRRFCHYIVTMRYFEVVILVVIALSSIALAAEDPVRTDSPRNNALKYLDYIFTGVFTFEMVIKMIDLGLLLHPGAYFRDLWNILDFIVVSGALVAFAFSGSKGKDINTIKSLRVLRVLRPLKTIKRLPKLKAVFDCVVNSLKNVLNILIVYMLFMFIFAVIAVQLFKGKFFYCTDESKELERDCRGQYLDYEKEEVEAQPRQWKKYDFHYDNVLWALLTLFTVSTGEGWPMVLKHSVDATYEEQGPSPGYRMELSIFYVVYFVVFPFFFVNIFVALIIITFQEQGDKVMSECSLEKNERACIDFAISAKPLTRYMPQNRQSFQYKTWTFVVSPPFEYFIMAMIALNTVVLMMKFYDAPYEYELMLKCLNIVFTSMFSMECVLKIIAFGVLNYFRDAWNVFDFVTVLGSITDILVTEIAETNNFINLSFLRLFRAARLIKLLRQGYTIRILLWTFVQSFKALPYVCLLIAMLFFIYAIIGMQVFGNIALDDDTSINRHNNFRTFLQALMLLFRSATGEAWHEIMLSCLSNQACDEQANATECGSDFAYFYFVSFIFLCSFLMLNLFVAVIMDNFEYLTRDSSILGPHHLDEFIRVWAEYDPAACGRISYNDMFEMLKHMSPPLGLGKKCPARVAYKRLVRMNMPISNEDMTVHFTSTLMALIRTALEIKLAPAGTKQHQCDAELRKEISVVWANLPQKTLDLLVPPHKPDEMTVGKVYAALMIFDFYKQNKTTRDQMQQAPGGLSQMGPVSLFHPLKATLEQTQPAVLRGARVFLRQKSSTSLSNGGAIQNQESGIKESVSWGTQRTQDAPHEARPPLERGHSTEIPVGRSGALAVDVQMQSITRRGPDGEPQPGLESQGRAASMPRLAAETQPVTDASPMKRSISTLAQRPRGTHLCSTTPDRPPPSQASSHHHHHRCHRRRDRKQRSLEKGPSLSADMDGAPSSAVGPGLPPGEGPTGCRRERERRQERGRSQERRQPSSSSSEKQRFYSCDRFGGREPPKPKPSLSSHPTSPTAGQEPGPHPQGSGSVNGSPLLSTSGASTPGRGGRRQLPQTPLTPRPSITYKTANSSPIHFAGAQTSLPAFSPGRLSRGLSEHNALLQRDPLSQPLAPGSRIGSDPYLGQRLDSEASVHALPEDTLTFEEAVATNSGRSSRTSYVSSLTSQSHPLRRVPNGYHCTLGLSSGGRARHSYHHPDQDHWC
# Sequence (P54284 whole entry partner): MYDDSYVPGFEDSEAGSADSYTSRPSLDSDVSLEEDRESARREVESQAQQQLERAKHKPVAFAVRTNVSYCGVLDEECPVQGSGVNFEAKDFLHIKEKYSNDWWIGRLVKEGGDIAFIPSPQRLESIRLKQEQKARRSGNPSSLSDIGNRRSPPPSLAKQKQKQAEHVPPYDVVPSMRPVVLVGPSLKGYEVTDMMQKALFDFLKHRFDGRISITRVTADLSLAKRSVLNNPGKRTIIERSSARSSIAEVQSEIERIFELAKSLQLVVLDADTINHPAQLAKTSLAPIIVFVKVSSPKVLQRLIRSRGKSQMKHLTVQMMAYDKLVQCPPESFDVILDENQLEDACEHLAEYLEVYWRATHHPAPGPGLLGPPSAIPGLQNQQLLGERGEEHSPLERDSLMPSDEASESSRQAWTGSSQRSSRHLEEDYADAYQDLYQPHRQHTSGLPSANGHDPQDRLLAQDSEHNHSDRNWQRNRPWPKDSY
# Sequence (P54289 25-956 partner limits assumed): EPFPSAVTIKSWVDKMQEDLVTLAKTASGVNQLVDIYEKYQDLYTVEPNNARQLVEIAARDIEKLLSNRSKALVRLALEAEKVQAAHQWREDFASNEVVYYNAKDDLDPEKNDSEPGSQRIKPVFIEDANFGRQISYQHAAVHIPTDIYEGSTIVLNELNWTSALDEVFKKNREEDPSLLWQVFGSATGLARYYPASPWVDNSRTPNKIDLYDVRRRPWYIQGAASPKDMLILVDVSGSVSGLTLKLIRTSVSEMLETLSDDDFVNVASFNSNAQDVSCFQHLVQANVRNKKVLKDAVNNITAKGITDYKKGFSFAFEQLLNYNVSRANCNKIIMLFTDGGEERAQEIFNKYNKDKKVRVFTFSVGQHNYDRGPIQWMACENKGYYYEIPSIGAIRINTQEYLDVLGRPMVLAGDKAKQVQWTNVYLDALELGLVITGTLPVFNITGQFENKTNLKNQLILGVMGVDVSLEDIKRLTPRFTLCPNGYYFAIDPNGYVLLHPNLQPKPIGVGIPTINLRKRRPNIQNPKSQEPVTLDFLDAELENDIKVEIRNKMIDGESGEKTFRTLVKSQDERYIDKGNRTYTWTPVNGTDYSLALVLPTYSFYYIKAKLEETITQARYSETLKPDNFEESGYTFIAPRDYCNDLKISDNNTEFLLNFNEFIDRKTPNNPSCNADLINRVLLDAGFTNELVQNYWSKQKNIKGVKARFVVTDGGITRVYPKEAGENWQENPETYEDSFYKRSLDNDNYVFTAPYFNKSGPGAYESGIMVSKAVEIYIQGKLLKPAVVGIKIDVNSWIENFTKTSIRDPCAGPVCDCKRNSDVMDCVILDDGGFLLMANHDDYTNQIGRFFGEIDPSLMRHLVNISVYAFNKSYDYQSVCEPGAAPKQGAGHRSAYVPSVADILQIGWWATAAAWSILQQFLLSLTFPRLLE
# Sequence (P54289 957-1103 partner limits assumed): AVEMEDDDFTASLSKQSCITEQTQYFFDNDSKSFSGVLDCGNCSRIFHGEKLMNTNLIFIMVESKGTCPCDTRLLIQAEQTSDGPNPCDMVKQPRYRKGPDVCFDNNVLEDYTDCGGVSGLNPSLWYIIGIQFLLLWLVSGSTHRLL
# ASSAY_TEXT: VIPR optical membrane potential assay with electrical stimulation, CaV2.2
# CONDITION_DETAILS: Table 9, CaV 2.2 receptors
ASSAY_READOUT: IC50

1) O=C(c1cnc(N2CCSCC2)nc1-c1ccccc1F)N(Cc1ccc(F)cc1)C1CC1	2 to 10 µM

CCC(C)NC(=O)c1cnc(NC2CCCCC2)nc1-c1ccc(C#N)cc1 (stereo not drawn) has a reported IC50 of > 10 µM

`CC(C)N(Cc1ccccc1)C(=O)c1cnc(NCCc2ccc(F)cc2)nc1-c1ccccc1F` has a reported IC50 of < 2 µM

CCC1CCC(C)N(C(=O)c2cnc(NCCc3ccc(OC)cc3)nc2-c2ccc(C#N)cc2)C1 (stereo not drawn) has a reported IC50 of 2 to 10 µM

`CN1CCN(c2ncc(C(=O)N(Cc3ccccc3)C3CC3)c(-c3ccccc3F)n2)CC1` has a reported IC50 of > 10 µM

`CN1CCN(c2ncc(C(=O)N(Cc3ccc(C(F)(F)F)cc3)C3CC3)c(-c3ccccc3F)n2)CC1` has a reported IC50 of 2 to 10 µM

----------
# ASSAY_SYSTEM: CaV2.2 (Homo sapiens, UniProt Q00975)
# Construct: expressed in transfected cells; host or cells: HEK293
# ASSAY_TEXT: VIPR optical membrane potential assay with electrical stimulation, CaV2.2
# Type: cell-based
# CONDITION_DETAILS: Table 9, CaV 2.2 receptors
pIC50: −log10 of the molar value.
pIC50 values by entry

Recorded pIC50, per entry:
1) O=C(c1cnc(N2CCC3CCCCC3C2)nc1-c1ccccc1F)N(Cc1cccc(-c2ccncc2)c1)C1CC1 (centres unmarked) [compound 114]	> 5.70
2) COc1cccc(N(C(=O)c2cnc(N3CCCCC3)nc2-c2ccccc2Cl)C2CCC2)c1 [compound 27]	5.00 to 5.70
3) CC(=O)N1CCN(c2ncc(C(=O)N(C)CC(C)C)c(-c3ccc(-c4ccccc4)cc3)n2)CC1 [compound 225]	5.00 to 5.70
4) CC(C)N(Cc1ccccc1)C(=O)c1cnc(N2CCc3ccccc3C2)nc1-c1ccccc1F [compound 78]	> 5.70
5) O=C(c1cnc(N2CCOCC2)nc1-c1ccc(-c2ccccc2)cc1)N1CCCCC1 [compound 229]	< 5.00

Cc1cccc(-c2nc(NCc3ccc4c(c3)OCO4)ncc2C(=O)N2CCOCC2)c1 [compound 264] tested on CaV2.2 (Homo sapiens, UniProt Q00975) gave pIC50: < 5.00

COCCCNC(=O)c1cnc(NCC2CC2)nc1-c1cccc(C)c1 [compound 257] tested on CaV2.2 (Homo sapiens, UniProt Q00975) gave pIC50: < 5.00

COCCNc1ncc(C(=O)N(C)C2CCCCC2)c(-c2ccc(C#N)cc2)n1 [compound 256] tested on CaV2.2 (Homo sapiens, UniProt Q00975) gave pIC50: < 5.00

----------
# ASSAY_SYSTEM: UniProt Q00975
# ASSAY_TEXT: VIPR optical membrane potential assay with electrical stimulation, CaV2.2
# CONDITION_DETAILS: Table 9, CaV 2.2 receptors
ASSAY_READOUT: IC50

1. CCC(C)Nc1ncc(C(=O)NC2CCCCC2C)c(-c2ccccc2F)n1 (centres unmarked)	> 10 µM
2. CC(C)N(Cc1ccccc1)C(=O)c1cnc(N2CCCCC2)nc1-c1ccccc1Cl	< 2 µM
3. COc1cccc(N(C(=O)c2cnc(N3CCC4CCCCC4C3)nc2-c2ccccc2F)C2CCC2)c1 (centres unmarked)	2 to 10 µM
4. O=C(c1cnc(N2CCOCC2)nc1-c1ccccc1F)N(Cc1cccnc1)C1CC1	> 10 µM

`CC(C)N(Cc1ccccc1)C(=O)c1cnc(N2CCOCC2)nc1-c1ccccc1Cl` has a reported IC50 of < 2 µM

`Cc1ccc(Nc2ncc(C(=O)N(Cc3ccccc3)C(C)C)c(-c3ccccc3F)n2)cc1` has a reported IC50 of > 10 µM

`CCCCNC(=O)c1cnc(NCCCC)nc1-c1cccc(C)c1` has a reported IC50 of > 10 µM

`N#Cc1ccc(-c2nc(N3CCCC3)ncc2C(=O)NCC2CCCCC2)cc1` has a reported IC50 of > 10 µM

----------
# ASSAY_SYSTEM: NaV1.3 (Homo sapiens)
# Construct: expressed in transfected cells; host or cells: HEK293
# ASSAY_TEXT: VIPR optical membrane potential assay with electrical stimulation, NaV1.3
# Format: cell-based
# CONDITION_DETAILS: Table 9, NaV 1.3 receptors
pIC50: −log10 of the molar value.
pIC50 values by entry

Recorded pIC50, per entry:
1) CC(C)N(Cc1ccccc1)C(=O)c1cnc(N2CCc3ccccc3C2)nc1-c1ccccc1F	5.00 to 5.70
2) CC(C)N(Cc1ccc2c(c1)OCO2)C(=O)c1cnc(N2CCCCC2)nc1-c1ccccc1Cl	5.00 to 5.70
3) CCN(Cc1cccc(C)c1)C(=O)c1cnc(N2CCOCC2)nc1-c1cccc(C)c1	< 5.00
4) CC(C)N(Cc1ccccc1)C(=O)c1cnc(Nc2cccc(Cl)c2)nc1-c1ccccc1F	< 5.00
5) Cc1cccc(-c2nc(NCC3CCCCC3)ncc2C(=O)N2CCOCC2)c1	< 5.00

`O=C(NCc1ccccc1C(F)(F)F)c1cnc(N2CCOCC2)nc1-c1ccccc1F` has a reported pIC50 of < 5.00

`O=C(c1cnc(N2CCOCC2)nc1-c1ccccc1F)N1CC=C(c2ccc(F)cc2)CC1` has a reported pIC50 of < 5.00

`CCN(Cc1ccccc1)C(=O)c1cnc(NCCCOC)nc1-c1ccccc1F` has a reported pIC50 of < 5.00

`O=C(c1cnc(N2CCCCC2)nc1-c1ccccc1Cl)N(Cc1ccc2c(c1)CCO2)C1CC1` has a reported pIC50 of 5.00 to 5.70

COc1cccc(N(C(=O)c2cnc(N3CCC4CCCCC4C3)nc2-c2ccccc2F)C(C)C)c1 (centres unmarked) has a reported pIC50 of 5.00 to 5.70

`COCCCNC(=O)c1cnc(NC2CCCCC2)nc1-c1ccc(-c2ccccc2)cc1` has a reported pIC50 of < 5.00

`CCC(=O)C1(c2ccccc2)CCN(C(=O)c2cnc(N3CCOCC3)nc2-c2ccccc2F)CC1` has a reported pIC50 of < 5.00

`O=C(c1cnc(N2CCSCC2)nc1-c1ccccc1F)N(Cc1ccccc1)C1CCCCC1` has a reported pIC50 of 5.00 to 5.70

CC(C)N(Cc1ccc(N2CCCC2)cc1)C(=O)c1cnc(N2CCC3CCCCC3C2)nc1-c1ccccc1F (centres unmarked) has a reported pIC50 of < 5.00

`O=C(c1cnc(N2CCSCC2)nc1-c1ccccc1F)N(Cc1ccccc1)C1CC1` has a reported pIC50 of 5.00 to 5.70

`O=C(c1cnc(N2CCSCC2)nc1-c1ccccc1F)N(Cc1ccccc1)C1CCC1` has a reported pIC50 of 5.00 to 5.70

`COc1cccc(N(C(=O)c2cnc(N3CCCCC3)nc2-c2ccccc2Cl)C2CC2)c1` has a reported pIC50 of < 5.00

----------
IC50 values by entry
# ASSAY_SYSTEM: CaV2.2 (Homo sapiens)
# ASSAY_TEXT: VIPR optical membrane potential assay with electrical stimulation, CaV2.2
# CONDITION_DETAILS: Table 9, CaV 2.2 receptors

1. CC(C)N(C(=O)c1cnc(N2CCOCC2)nc1-c1ccccc1F)c1cccc2ccccc12	> 10 µM

`N#Cc1ccc(-c2nc(NCC3CCCCC3)ncc2C(=O)N2CCCCC2)cc1` has a reported IC50 of > 10 µM

`CCN(Cc1cccc(C)c1)C(=O)c1cnc(NCC2CC2)nc1-c1ccccc1F` has a reported IC50 of > 10 µM

`COc1ccccc1C1CCN(C(=O)c2cnc(N3CCOCC3)nc2-c2ccccc2F)CC1` has a reported IC50 of > 10 µM

`COCCCNc1ncc(C(=O)N2CCCCC2)c(-c2cccc(C)c2)n1` has a reported IC50 of > 10 µM

`CCN(Cc1ccccc1)C(=O)c1cnc(N2CCCC2)nc1-c1ccc(C#N)cc1` has a reported IC50 of > 10 µM

`CN1CCN(c2ncc(C(=O)N(Cc3ccc(F)cc3)C3CC3)c(-c3ccccc3F)n2)CC1` has a reported IC50 of > 10 µM

`CC(=O)NCCNc1ncc(C(=O)N(Cc2ccccc2)C(C)C)c(-c2ccccc2F)n1` has a reported IC50 of > 10 µM

----------
# ASSAY_SYSTEM: UniProt Q00975
# ASSAY_TEXT: VIPR optical membrane potential assay with electrical stimulation, CaV2.2
# CONDITION_DETAILS: Table 9, CaV 2.2 receptors
ASSAY_READOUT: IC50

Recorded IC50, per entry:
1) CC(C)(C)c1ccc(CN(C(=O)c2cnc(N3CCSCC3)nc2-c2ccccc2F)C2CC2)cc1 [compound 2]	2 to 10 µM
2) CC(C)N(C(=O)c1cnc(N2CCOCC2)nc1-c1ccccc1F)c1cccc(C(C)(C)C)c1 [compound 165]	> 10 µM
3) CC(C)N(C(=O)c1cnc(N2CCCCC2)nc1-c1ccccc1Cl)c1cccc(C(C)(C)C)c1 [compound 3]	> 10 µM

Then there is this compound:
CC(C)N(C(=O)c1cnc(N2CCOCC2)nc1-c1ccccc1F)c1cccc(N(C)C)c1 [compound 111] has a reported IC50 of > 10 µM
